Where these numbers come from: patent US8039639B2

system: p38 pathway; assay: HeLa cell phospho-HSP27 assay, anisomycin-stimulated; format: cell-based; conditions: Homo sapiens; HeLa cells, 60 min pretreatment, 1 μg/mL anisomycin 60 min; read-out: apparent IC50, p38 pathway in cells (phospho-HSP27 Ser78)
recorded-endpoint: pIC50
One number for each entry, as −log10 of the molar value.

Ask | Consider the molecule shown here: `Cc1ccc(-n2nc(C(C)(C)C)cc2NC(=O)NCc2cc(F)ccc2Oc2ccc3c(cnn3CCO)c2)cc1` What is its recorded pIC50?
Reply | 8.70

====

experiment: Pharmacokinetics in mouse; assay type: in vivo, female Balb/c mice; conditions: female, Balb/c, plasma, IV: 1 mg/kg
recorded-endpoint: half-life (min)
Give bare numbers, in min.

Ask | Consider the molecule shown here: Cc1ccc(-n2nc(C(C)(C)C)cc2NC(=O)NCc2cc(F)ccc2Oc2ccc3c(cnn3CCO)c2)cc1 [Compound 72] What is its recorded half-life?
Reply | 234

====

assay: Pharmacokinetics in rat; format: in vivo, male Sprague-Dawley rats; conditions: male, Sprague-Dawley, plasma, Oral: 30 mg/kg
recorded-endpoint: Cmax (ng/mL)
Answers are plain numbers, in ng/mL.

Ask | Consider the compound shown here: `Cc1ccc(-n2nc(C(C)(C)C)cc2NC(=O)NCc2cc(F)ccc2Oc2ccc3c(cnn3CCO)c2)cc1` What is its recorded Cmax?
Reply | 4500

====

assay: Solubility determination; type: physicochemical; conditions: pH 7.4, aqueous buffer
For each of the molecules below, state its solubility.

Some entries whose results are on file:
Cc1ccc(-n2nc(C(C)(C)C)cc2NC(=O)NCc2cc(F)ccc2Oc2ccc3c(cnn3CCO)c2)cc1 ... < 5 µg/mL
Cn1nc(C(C)(C)C)cc1NC(=O)NCc1cc(F)ccc1Oc1ccc2c(cnn2CC(C)(C)O)c1 ... < 1 µg/mL

Here's the next entry for you.
Ask | Consider the molecule shown here: `Cc1ccc(-n2nc(C(C)(C)C)cc2NC(=O)NCc2cc(F)ccc2Oc2ccc3c(cnn3C)c2)cc1` What is its recorded solubility?
Reply | < 1 µg/mL

====

test: Solubility determination; type: physicochemical; details: pH 1.2, simulated gastric fluid
recorded-endpoint: solubility

Ask | Consider the molecule shown here: `Cc1ccc(-n2nc(C(C)(C)C)cc2NC(=O)NCc2cc(F)ccc2Oc2ccc3c(cnn3CCOP(=O)(O)O)c2)cc1` What is its recorded solubility?
Reply | < 1000 µg/mL

====

molecular target: VEGFR2 (Homo sapiens); construct: endogenous in cells; assay: VEGFR2 autophosphorylation (Tyr1175) in VEGF-stimulated HUVECs; settings: 20 ng/mL VEGF for 5 minutes, read-out: IC50, VEGFR2 autophosphorylation at Tyrosine residue 1175
Sequence (P35968 20-1356): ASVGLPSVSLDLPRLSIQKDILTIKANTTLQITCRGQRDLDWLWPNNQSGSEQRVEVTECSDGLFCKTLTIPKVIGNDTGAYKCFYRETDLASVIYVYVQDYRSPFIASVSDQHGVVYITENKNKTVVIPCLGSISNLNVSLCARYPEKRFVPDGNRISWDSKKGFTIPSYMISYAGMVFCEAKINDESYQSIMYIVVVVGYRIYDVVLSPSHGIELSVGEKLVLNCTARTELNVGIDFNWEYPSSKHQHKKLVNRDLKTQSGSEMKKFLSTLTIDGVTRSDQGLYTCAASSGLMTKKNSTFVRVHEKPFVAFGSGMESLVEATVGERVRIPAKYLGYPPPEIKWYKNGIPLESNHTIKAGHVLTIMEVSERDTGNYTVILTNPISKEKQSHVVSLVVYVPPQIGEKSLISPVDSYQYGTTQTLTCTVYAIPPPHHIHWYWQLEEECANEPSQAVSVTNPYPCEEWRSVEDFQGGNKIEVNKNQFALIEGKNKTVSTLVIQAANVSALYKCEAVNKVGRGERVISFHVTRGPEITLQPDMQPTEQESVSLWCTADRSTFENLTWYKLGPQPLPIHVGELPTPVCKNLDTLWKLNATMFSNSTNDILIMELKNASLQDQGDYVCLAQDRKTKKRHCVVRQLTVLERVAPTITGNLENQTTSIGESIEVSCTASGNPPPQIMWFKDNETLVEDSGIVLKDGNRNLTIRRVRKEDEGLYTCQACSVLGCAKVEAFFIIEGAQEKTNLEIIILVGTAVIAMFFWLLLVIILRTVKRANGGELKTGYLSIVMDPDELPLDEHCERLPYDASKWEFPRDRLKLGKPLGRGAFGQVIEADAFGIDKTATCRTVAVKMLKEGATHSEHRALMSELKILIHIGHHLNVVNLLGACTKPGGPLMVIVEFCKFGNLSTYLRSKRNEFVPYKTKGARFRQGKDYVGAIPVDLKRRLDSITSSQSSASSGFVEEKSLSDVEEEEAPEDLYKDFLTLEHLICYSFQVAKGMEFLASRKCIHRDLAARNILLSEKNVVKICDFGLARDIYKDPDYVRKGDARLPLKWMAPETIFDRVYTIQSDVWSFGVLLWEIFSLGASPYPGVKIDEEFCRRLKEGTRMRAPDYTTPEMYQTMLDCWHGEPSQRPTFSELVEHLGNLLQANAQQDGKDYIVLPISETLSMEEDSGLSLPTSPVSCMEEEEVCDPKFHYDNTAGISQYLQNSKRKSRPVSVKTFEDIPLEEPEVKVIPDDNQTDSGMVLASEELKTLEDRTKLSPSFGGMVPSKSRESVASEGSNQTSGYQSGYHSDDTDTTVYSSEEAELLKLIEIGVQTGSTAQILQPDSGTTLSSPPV
recorded-endpoint: IC50 (nM)
Answers are plain numbers, in nM.

Ask | Consider the molecule shown here: Cc1ccc(-n2nc(C(C)(C)C)cc2NC(=O)NCc2cc(F)ccc2Oc2ccc3c(cnn3CCO)c2)cc1 [Compound 72] What is its recorded IC50?
Reply | 48

====

assay: Pharmacokinetics in monkey; type: in vivo, male Cynomologus monkeys; settings: male, plasma, Oral: 10 mg/kg
recorded-endpoint: Cmax (ng/mL)
Answers are plain numbers, in ng/mL.

Ask | Consider the compound shown here: `Cc1ccc(-n2nc(C(C)(C)C)cc2NC(=O)NCc2cc(F)ccc2Oc2ccc3c(cnn3CCO)c2)cc1` What is its recorded Cmax?
Reply | 260

====

assay: Pharmacokinetics in rat; assay type: in vivo, male Sprague-Dawley rats; conditions: male, Sprague-Dawley, plasma, IV: 1 mg/kg
recorded-endpoint: clearance (mL/min/kg)
Numbers only, in mL/min/kg.

Ask | Consider the compound shown here: Cc1ccc(-n2nc(C(C)(C)C)cc2NC(=O)NCc2cc(F)ccc2Oc2ccc3c(cnn3CCO)c2)cc1 [Compound 72] What is its recorded clearance?
Reply | 3.2

====

test system: Erk and AKT; assay: phospho-Erk and phospho-AKT in Ang-1 stimulated HUVECs; format: cell-based; conditions: Homo sapiens, HUVEC, 10 min, 200 ng/mL Ang-1 for 10 minutes, read-out: IC50, downstream effectors Erk and AKT
recorded-endpoint: IC50

Ask | Missing value: IC50, Erk and AKT, entry `Cc1ccc(-n2nc(C(C)(C)C)cc2NC(=O)NCc2cc(F)ccc2Oc2ccc3c(cnn3CCO)c2)cc1` . Fill in?
Reply | < 11 nM

====

molecular target: Hck (Homo sapiens)
recorded-endpoint: IC50

Ask | Consider the molecule shown here: `Cc1ccc(-n2nc(C(C)(C)C)cc2NC(=O)NCc2cc(F)ccc2Oc2ccc3c(cnn3CCO)c2)cc1` What is its recorded IC50?
Reply | 26 nM

====

assay: Pharmacokinetics in mouse; assay type: in vivo, female Balb/c mice; conditions: female, Balb/c, plasma, IV: 1 mg/kg, read-out: Vz
recorded-endpoint: Vd
Output should be the measured figure followed by the unit it is expressed in.

Ask | Consider the compound shown here: Cc1ccc(-n2nc(C(C)(C)C)cc2NC(=O)NCc2cc(F)ccc2Oc2ccc3c(cnn3CCO)c2)cc1 [Compound 72] What is its recorded Vd?
Reply | 0.085 L/kg

====

For each of the molecules below, state its IC50.
molecular target: UniProt:P00519
Sequence (P00519 whole entry, species assumed): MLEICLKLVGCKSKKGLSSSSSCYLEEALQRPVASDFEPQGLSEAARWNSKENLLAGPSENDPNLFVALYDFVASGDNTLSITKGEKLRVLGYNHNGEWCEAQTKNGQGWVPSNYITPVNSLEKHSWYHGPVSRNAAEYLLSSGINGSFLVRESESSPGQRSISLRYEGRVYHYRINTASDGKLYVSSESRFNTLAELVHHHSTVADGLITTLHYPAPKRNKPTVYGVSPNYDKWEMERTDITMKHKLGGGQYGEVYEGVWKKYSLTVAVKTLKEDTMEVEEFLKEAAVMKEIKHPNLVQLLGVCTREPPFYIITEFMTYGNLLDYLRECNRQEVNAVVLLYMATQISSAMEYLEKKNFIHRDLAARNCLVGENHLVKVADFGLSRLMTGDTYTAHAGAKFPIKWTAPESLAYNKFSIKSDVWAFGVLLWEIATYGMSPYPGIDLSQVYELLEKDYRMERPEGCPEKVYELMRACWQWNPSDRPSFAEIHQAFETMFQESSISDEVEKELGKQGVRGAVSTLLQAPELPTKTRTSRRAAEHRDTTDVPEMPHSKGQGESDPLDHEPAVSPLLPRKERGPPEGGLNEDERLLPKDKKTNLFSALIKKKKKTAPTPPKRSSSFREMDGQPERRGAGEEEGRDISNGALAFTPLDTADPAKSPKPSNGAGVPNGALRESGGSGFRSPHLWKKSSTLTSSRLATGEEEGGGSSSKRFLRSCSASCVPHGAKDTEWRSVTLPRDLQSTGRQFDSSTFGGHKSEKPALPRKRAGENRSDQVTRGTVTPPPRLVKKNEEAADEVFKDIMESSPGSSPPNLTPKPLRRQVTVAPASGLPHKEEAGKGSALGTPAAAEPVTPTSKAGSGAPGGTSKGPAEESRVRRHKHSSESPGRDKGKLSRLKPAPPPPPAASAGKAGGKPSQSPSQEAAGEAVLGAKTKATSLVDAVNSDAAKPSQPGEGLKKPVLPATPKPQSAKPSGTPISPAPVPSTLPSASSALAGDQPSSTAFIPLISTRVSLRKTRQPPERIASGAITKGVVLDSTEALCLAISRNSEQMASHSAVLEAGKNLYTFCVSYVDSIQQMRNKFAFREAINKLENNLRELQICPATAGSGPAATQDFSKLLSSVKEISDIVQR
Answers are plain numbers, in nM.

Cc1ccc(-n2nc(C(C)(C)C)cc2NC(=O)NCc2cc(F)ccc2Oc2ccc3c(cnn3C)c2)cc1 ... 10

Here's the next entry for you.
Ask | Missing value: IC50, UniProt:P00519, entry `Cc1ccc(-n2nc(C(C)(C)C)cc2NC(=O)NCc2cc(F)ccc2Oc2ccc3c(cnn3CCO)c2)cc1` . Fill in?
Reply | 4

====

Test: Pharmacokinetics in monkey
Format: in vivo, male Cynomologus monkeys
Conditions: male, plasma, IV: 1 mg/kg
Description: Non-compartmental (model independent) methods were used to analyze the plasma concentration time-curves derived from all species as described below. Clearance (Cl), calculated percent extraction ratios (ER %), volume of distribution (Vz), time to […] (t1/2) and exposure (AUC, area under the curve) values are provided below for mouse, rat, and monkey, respectively. 3. […] Blood was sampled at the same time points as listed for the Mouse PK study.
recorded-endpoint: half-life (h)
Give bare numbers, in h.

Ask | Consider the compound shown here: `Cc1ccc(-n2nc(C(C)(C)C)cc2NC(=O)NCc2cc(F)ccc2Oc2ccc3c(cnn3CCO)c2)cc1` What is its recorded half-life?
Reply | 4.6

====

molecular target: CYP2C9 (Homo sapiens)
recorded-endpoint: pIC50
Numbers only, as −log10 of the molar value.

Ask | Missing value: pIC50, CYP2C9 (Homo sapiens), entry `Cc1ccc(-n2nc(C(C)(C)C)cc2NC(=O)NCc2cc(F)ccc2Oc2ccc3c(cnn3CCO)c2)cc1` . Fill in?
Reply | 5.30

====

experiment: Pharmacokinetics in rat; type: in vivo, male Sprague-Dawley rats; details: male, Sprague-Dawley, plasma, IV: 1 mg/kg
recorded-endpoint: half-life (h)
Answers are plain numbers, in h.

Ask | Consider the molecule shown here: Cc1ccc(-n2nc(C(C)(C)C)cc2NC(=O)NCc2cc(F)ccc2Oc2ccc3c(cnn3CCO)c2)cc1 [Compound 72] What is its recorded half-life?
Reply | 3.9

====

biological target: FGFR1 (Homo sapiens, UniProt P11362)
Sequence (P11362 22-822, species assumed): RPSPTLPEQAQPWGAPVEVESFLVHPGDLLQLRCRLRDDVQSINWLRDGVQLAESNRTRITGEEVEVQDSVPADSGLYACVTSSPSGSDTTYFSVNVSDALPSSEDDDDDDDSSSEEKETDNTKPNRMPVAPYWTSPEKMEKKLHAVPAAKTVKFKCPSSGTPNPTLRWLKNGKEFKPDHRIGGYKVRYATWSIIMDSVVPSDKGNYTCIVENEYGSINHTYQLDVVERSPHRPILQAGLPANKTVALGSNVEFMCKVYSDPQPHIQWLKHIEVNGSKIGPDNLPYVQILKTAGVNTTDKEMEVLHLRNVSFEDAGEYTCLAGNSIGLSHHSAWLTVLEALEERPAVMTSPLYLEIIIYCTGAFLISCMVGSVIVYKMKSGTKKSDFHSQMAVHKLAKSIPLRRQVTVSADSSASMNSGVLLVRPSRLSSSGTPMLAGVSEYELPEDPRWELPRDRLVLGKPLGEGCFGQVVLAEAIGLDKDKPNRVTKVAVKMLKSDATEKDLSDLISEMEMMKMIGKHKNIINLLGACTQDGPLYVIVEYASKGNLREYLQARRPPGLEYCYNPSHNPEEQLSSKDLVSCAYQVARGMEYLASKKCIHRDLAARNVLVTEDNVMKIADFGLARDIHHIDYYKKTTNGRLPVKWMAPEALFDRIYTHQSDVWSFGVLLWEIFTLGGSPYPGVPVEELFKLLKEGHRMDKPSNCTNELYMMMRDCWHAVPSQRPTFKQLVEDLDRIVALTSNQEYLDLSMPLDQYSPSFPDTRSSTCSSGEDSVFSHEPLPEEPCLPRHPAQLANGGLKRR
recorded-endpoint: IC50 (nM)
Answers are plain numbers, in nM.

Ask | Consider the compound shown here: `Cc1ccc(-n2nc(C(C)(C)C)cc2NC(=O)NCc2cc(F)ccc2Oc2ccc3c(cnn3CCO)c2)cc1` What is its recorded IC50?
Reply | 28

====

target: CYP3A4 (Homo sapiens); construct: using pooled human liver microsomes (n=1); from tissue; host or cells: pooled human liver microsomes; assay: CYP inhibition assay (LC/MS, pooled human liver microsomes); assay type: in vitro ADME; conditions: substrate Testosterone, n=1
Sequence (P08684 whole entry): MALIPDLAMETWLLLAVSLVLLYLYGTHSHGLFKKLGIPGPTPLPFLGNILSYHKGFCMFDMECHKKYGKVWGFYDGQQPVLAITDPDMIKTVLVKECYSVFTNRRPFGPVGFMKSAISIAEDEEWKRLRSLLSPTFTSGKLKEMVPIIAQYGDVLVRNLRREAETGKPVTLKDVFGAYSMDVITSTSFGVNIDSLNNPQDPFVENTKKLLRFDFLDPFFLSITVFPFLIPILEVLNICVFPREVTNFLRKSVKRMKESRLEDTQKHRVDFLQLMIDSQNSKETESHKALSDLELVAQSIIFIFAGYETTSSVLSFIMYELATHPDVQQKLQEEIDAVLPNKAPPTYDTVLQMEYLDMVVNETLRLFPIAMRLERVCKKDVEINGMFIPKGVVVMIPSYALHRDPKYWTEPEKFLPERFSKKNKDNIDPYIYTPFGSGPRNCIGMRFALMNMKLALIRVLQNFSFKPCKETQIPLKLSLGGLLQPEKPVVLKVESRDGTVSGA
recorded-endpoint: IC50

Ask | Consider the molecule shown here: `Cc1ccc(-n2nc(C(C)(C)C)cc2NC(=O)NCc2cc(F)ccc2Oc2ccc3c(cnn3CCO)c2)cc1` What is its recorded IC50?
Reply | ~10 µM

====

target: Tie2 (Homo sapiens, UniProt Q02763); experiment: protein kinase IC50 determination (ATP at Km); type: biochemical; conditions: ATP concentration at Km
Sequence (Q02763 23-1124, species assumed): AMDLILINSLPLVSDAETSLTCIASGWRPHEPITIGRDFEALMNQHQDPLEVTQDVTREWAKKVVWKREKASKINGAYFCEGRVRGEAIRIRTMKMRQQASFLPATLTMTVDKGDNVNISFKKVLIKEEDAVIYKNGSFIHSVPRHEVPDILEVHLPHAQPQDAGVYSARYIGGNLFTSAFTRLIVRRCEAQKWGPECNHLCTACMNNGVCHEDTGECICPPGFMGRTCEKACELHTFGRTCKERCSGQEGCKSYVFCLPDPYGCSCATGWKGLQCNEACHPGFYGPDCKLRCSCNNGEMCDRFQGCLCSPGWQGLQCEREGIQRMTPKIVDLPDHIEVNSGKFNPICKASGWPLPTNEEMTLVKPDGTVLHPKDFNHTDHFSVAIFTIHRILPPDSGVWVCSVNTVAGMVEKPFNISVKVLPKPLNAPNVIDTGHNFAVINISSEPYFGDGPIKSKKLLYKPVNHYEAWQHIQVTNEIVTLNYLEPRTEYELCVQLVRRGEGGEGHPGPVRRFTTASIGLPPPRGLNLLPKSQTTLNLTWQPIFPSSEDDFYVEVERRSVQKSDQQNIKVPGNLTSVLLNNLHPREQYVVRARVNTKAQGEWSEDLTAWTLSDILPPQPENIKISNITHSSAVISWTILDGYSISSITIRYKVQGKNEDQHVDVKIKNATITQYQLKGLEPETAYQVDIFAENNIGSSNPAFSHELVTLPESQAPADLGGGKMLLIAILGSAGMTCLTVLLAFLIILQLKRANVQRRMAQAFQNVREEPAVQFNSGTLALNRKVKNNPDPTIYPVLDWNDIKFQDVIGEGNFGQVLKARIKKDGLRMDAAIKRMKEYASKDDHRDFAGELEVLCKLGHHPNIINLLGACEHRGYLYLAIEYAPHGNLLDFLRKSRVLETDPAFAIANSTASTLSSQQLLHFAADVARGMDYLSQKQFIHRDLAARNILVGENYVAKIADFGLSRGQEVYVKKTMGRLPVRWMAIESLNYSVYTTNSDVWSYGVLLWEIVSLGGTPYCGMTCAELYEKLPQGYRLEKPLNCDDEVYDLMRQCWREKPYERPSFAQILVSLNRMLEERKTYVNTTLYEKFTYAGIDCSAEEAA
For each of the molecules below, state its IC50.
Numbers only, in nM.

Cc1ccc(-n2nc(C(C)(C)C)cc2NC(=O)NCc2cc(F)ccc2Oc2ccc3c(cnn3CCO)c2)cc1 ... 1

Ask | Consider the molecule shown here: `Cc1ccc(-n2nc(C(C)(C)C)cc2NC(=O)NCc2cc(F)ccc2Oc2ccc3c(cnn3C)c2)cc1` What is its recorded IC50?
Reply | 4

====

Test: Pharmacokinetics in monkey
Type: in vivo, male Cynomologus monkeys
Conditions: male, plasma, IV: 1 mg/kg, read-out: Vz
Text: Non-compartmental (model independent) methods were used to analyze the plasma concentration time-curves derived from all species as described below. Clearance (Cl), calculated percent extraction ratios (ER %), volume of distribution (Vz), time to […] (t1/2) and exposure (AUC, area under the curve) values are provided below for mouse, rat, and monkey, respectively. 3. […] Blood was sampled at the same time points as listed for the Mouse PK study.
recorded-endpoint: Vd (L/kg)
Give bare numbers, in L/kg.

Ask | Consider the compound shown here: Cc1ccc(-n2nc(C(C)(C)C)cc2NC(=O)NCc2cc(F)ccc2Oc2ccc3c(cnn3CCO)c2)cc1 [Compound 72] What is its recorded Vd?
Reply | 3.2
